Provenance of the data: ChEMBL document CHEMBL4680120

tested on: SH-SY5Y; assay: Neuroprotective activity against amyloid beta (1 to 42)-induced apoptosis in human SH-SY5Y cells assessed as early apoptotic cells at IC50 measured after 48 hrs by Annexin-V/Propidium iodide staining based flow cytometry (reference value: 0.74%); format: functional

MOLECULE	Activity [%]
O=C(CCCCC1CCSS1)NCCCCCOC(=O)Cc1ccc(O)c(O)c1 (stereo not given)	1.86
COc1ccc(/C=C/C(=O)OCCOCCNC(=O)CCCCC2CCSS2)cc1OC (stereo not given)	2.85
COc1cc(/C=C/C(=O)NCCCNC(=O)CCCCC2CCSS2)ccc1O (stereo not given)	1.19
O=C(CCCCC1CCSS1)NCCCNC(=O)Cc1ccc(O)c(O)c1 (stereo not given)	3.88
COc1ccc(CC(=O)NCCCNC(=O)CCCCC2CCSS2)cc1OC (stereo not given)	3.51

###

assay: Stability in simulated intestinal fluid at pH 6.8 assessed as relative difference measured after 120 mins in presence of pancreatin by HPLC analysis; type: ADME; settings: simulated gi fluid, pH 6.8, 2 h

COMPOUND	UNIT_LABEL	fold change (FC)
COc1ccc(/C=C/C(=O)OCCOCCNC(=O)CCCCC2CCSS2)cc1OC (stereo not given)	%	31.38
O=C(CCCCC1CCSS1)NCCCNC(=O)Cc1ccc(O)c(O)c1 (stereo not given)	%	70
O=C(CCCCC1CCSS1)NCCCCNC(=O)Cc1ccc(O)c(O)c1 (stereo not given)	%	63
COc1ccc(/C=C/C(=O)NCCCCNC(=O)CCCCC2CCSS2)cc1OC (stereo not given)	%	22.21
O=C(CCCCC1CCSS1)NCCOCCOC(=O)Cc1ccc(O)c(O)c1 (stereo not given)	%	89.78
COc1ccc(CC(=O)NCCCNC(=O)CCCCC2CCSS2)cc1OC (stereo not given)	%	1.32
COc1cc(/C=C/C(=O)NCCCNC(=O)CCCCC2CCSS2)ccc1O (stereo not given)	%	2.5
COc1cc(/C=C/C(=O)NCCNC(=O)CCCCC2CCSS2)ccc1O (stereo not given)	%	4.15
O=C(CCCCC1CCSS1)NCCNC(=O)Cc1ccc(O)c(O)c1 (stereo not given)	%	3.78
O=C(CCCCC1CCSS1)NCCOC(=O)Cc1ccc(O)c(O)c1 (stereo not given)	%	70.45

###

test: Stability in simulated gastric fluid at pH 1.2 assessed as relative difference measured after 15 mins in presence of pepsin by HPLC analysis; format: ADME; conditions: isolated protein, pH 1.2, 0.25 h
Please use y for fold change (FC) under 5% and n for everything else, ties included.

COMPOUND	ANSWER_LABEL
O=C(CCCCC1CCSS1)NCCOC(=O)Cc1ccc(O)c(O)c1 (stereo not drawn)	n
COc1cc(/C=C/C(=O)NCCNC(=O)CCCCC2CCSS2)ccc1O (stereo not drawn)	y
COc1ccc(CC(=O)OCCCNC(=O)CCCCC2CCSS2)cc1OC (stereo not drawn)	n
O=C(CCCCC1CCSS1)NCCCCNC(=O)Cc1ccc(O)c(O)c1 (stereo not drawn)	n
O=C(CCCCC1CCSS1)NCCCOC(=O)Cc1ccc(O)c(O)c1 (stereo not drawn)	n
COc1ccc(/C=C/C(=O)NCCCCNC(=O)CCCCC2CCSS2)cc1OC (stereo not drawn)	y
COc1ccc(CC(=O)NCCCNC(=O)CCCCC2CCSS2)cc1OC (stereo not drawn)	y
O=C(CCCCC1CCSS1)NCCOCCOC(=O)Cc1ccc(O)c(O)c1 (stereo not drawn)	n
O=C(CCCCC1CCSS1)NCCNC(=O)Cc1ccc(O)c(O)c1 (stereo not drawn)	y
COc1cc(/C=C/C(=O)NCCCNC(=O)CCCCC2CCSS2)ccc1O (stereo not drawn)	y
O=C(CCCCC1CCSS1)NCCCNC(=O)Cc1ccc(O)c(O)c1 (stereo not drawn)	n
O=C(CCCCC1CCSS1)NCCCCCOC(=O)Cc1ccc(O)c(O)c1 (stereo not drawn)	n
COc1ccc(/C=C/C(=O)OCCOCCNC(=O)CCCCC2CCSS2)cc1OC (stereo not drawn)	n

###

assay: Stability in simulated gastric fluid at pH 1.2 assessed as relative difference measured after 60 mins in presence of pepsin by HPLC analysis; assay type: ADME; settings: isolated protein, pH 1.2, 1 h
Please use label 1 for fold change (FC) under 70% and label 0 for everything else, ties included.

COMPOUND	ANSWER_LABEL
O=C(CCCCC1CCSS1)NCCOC(=O)Cc1ccc(O)c(O)c1 (stereo not drawn)	label 1
COc1cc(/C=C/C(=O)NCCNC(=O)CCCCC2CCSS2)ccc1O (stereo not drawn)	label 1
O=C(CCCCC1CCSS1)NCCCOC(=O)Cc1ccc(O)c(O)c1 (stereo not drawn)	label 0
COc1ccc(/C=C/C(=O)NCCCCNC(=O)CCCCC2CCSS2)cc1OC (stereo not drawn)	label 1
COc1ccc(CC(=O)NCCCNC(=O)CCCCC2CCSS2)cc1OC (stereo not drawn)	label 1
O=C(CCCCC1CCSS1)NCCNC(=O)Cc1ccc(O)c(O)c1 (stereo not drawn)	label 1
O=C(CCCCC1CCSS1)NCCCCCOC(=O)Cc1ccc(O)c(O)c1 (stereo not drawn)	label 0
O=C(CCCCC1CCSS1)NCCOCCOC(=O)Cc1ccc(O)c(O)c1 (stereo not drawn)	label 0
COc1ccc(CC(=O)OCCCNC(=O)CCCCC2CCSS2)cc1OC (stereo not drawn)	label 1
COc1ccc(/C=C/C(=O)OCCOCCNC(=O)CCCCC2CCSS2)cc1OC (stereo not drawn)	label 1
COc1cc(/C=C/C(=O)NCCCNC(=O)CCCCC2CCSS2)ccc1O (stereo not drawn)	label 1
O=C(CCCCC1CCSS1)NCCCCNC(=O)Cc1ccc(O)c(O)c1 (stereo not drawn)	label 1
O=C(CCCCC1CCSS1)NCCCNC(=O)Cc1ccc(O)c(O)c1 (stereo not drawn)	label 1

###

experiment: Stability in human plasma assessed as observed rate constant by HPLC analysis; assay type: ADME, cell-free
Class t: K at least 0.04 h⁻¹. Class f: K below 0.04 h⁻¹.

MOLECULE	ANSWER_LABEL
COc1ccc(CC(=O)OCCCNC(=O)CCCCC2CCSS2)cc1OC (configuration not stated)	t
O=C(CCCCC1CCSS1)NCCCCCOC(=O)Cc1ccc(O)c(O)c1 (configuration not stated)	t
O=C(CCCCC1CCSS1)NCCCCNC(=O)Cc1ccc(O)c(O)c1 (configuration not stated)	t
O=C(CCCCC1CCSS1)NCCCNC(=O)Cc1ccc(O)c(O)c1 (configuration not stated)	t
O=C(CCCCC1CCSS1)NCCNC(=O)Cc1ccc(O)c(O)c1 (configuration not stated)	f
COc1ccc(/C=C/C(=O)OCCOCCNC(=O)CCCCC2CCSS2)cc1OC (configuration not stated)	t
COc1ccc(/C=C/C(=O)NCCCCNC(=O)CCCCC2CCSS2)cc1OC (configuration not stated)	f
O=C(CCCCC1CCSS1)NCCOCCOC(=O)Cc1ccc(O)c(O)c1 (configuration not stated)	t
COc1cc(/C=C/C(=O)NCCNC(=O)CCCCC2CCSS2)ccc1O (configuration not stated)	f
COc1cc(/C=C/C(=O)NCCCNC(=O)CCCCC2CCSS2)ccc1O (configuration not stated)	f
O=C(CCCCC1CCSS1)NCCOC(=O)Cc1ccc(O)c(O)c1 (configuration not stated)	t
O=C(CCCCC1CCSS1)NCCCOC(=O)Cc1ccc(O)c(O)c1 (configuration not stated)	t

###

The molecules listed here are annotated with their fold change (FC).
experiment: Stability in simulated gastric fluid at pH 1.2 assessed as relative difference measured after 30 mins in presence of pepsin by HPLC analysis; assay type: ADME; conditions: isolated protein, pH 1.2, 0.5 h
MEASUREMENT_NAME: fold change (FC) (%)

MOLECULE	MEASUREMENT_NAME	NUMERIC_RESULT
COc1ccc(CC(=O)OCCCNC(=O)CCCCC2CCSS2)cc1OC (stereo not drawn)	fold change (FC)	35.89
O=C(CCCCC1CCSS1)NCCCCNC(=O)Cc1ccc(O)c(O)c1 (stereo not drawn)	fold change (FC)	37.63
COc1cc(/C=C/C(=O)NCCCNC(=O)CCCCC2CCSS2)ccc1O (stereo not drawn)	fold change (FC)	0.43
O=C(CCCCC1CCSS1)NCCCCCOC(=O)Cc1ccc(O)c(O)c1 (stereo not drawn)	fold change (FC)	79.35
COc1cc(/C=C/C(=O)NCCNC(=O)CCCCC2CCSS2)ccc1O (stereo not drawn)	fold change (FC)	1.28
O=C(CCCCC1CCSS1)NCCOC(=O)Cc1ccc(O)c(O)c1 (stereo not drawn)	fold change (FC)	46.72
COc1ccc(/C=C/C(=O)OCCOCCNC(=O)CCCCC2CCSS2)cc1OC (stereo not drawn)	fold change (FC)	7.35
O=C(CCCCC1CCSS1)NCCCOC(=O)Cc1ccc(O)c(O)c1 (stereo not drawn)	fold change (FC)	86.54
COc1ccc(/C=C/C(=O)NCCCCNC(=O)CCCCC2CCSS2)cc1OC (stereo not drawn)	fold change (FC)	8.23
COc1ccc(CC(=O)NCCCNC(=O)CCCCC2CCSS2)cc1OC (stereo not drawn)	fold change (FC)	1.89
O=C(CCCCC1CCSS1)NCCCNC(=O)Cc1ccc(O)c(O)c1 (stereo not drawn)	fold change (FC)	47.45
O=C(CCCCC1CCSS1)NCCOCCOC(=O)Cc1ccc(O)c(O)c1 (stereo not drawn)	fold change (FC)	63.52
O=C(CCCCC1CCSS1)NCCNC(=O)Cc1ccc(O)c(O)c1 (stereo not drawn)	fold change (FC)	0.99
